meta.source: patent US9096565B2

- target desc: one or more of HDAC-4, HDAC-5, HDAC-6, HDAC-7, HDAC-8, HDAC-9, HDAC-10 and HDAC-11
- test: Inhibition of histone deacetylase enzymatic activity (summary statement over isoforms)
- assay setup: Table 3, selected examples; HDAC isoform not given
pIC50: −log10 of the molar value.
reported endpoint: pIC50

Which pIC50 is listed for CSc1ccc(OC(C(=O)NO)c2ccccc2)cc1 (stereo not drawn) [Compound 7-18] ?
4.82 to 6.00

---

- target desc: one or more of HDAC-4, HDAC-5, HDAC-6, HDAC-7, HDAC-8, HDAC-9, HDAC-10 and HDAC-11
- test: Inhibition of histone deacetylase enzymatic activity (summary statement over isoforms)
- assay setup: Table 3, selected examples; HDAC isoform not given
reported endpoint: IC50

# count of solved cases: 4
O=C(NO)C(c1ccccc1)N1CCN(c2ccc(F)cc2)CC1 (stereo not shown); 1000 to 15000 nM
O=C(NO)C(Sc1nc2cccnc2s1)c1ccccc1 (stereo not shown); < 1000 nM
Cc1cc(-c2ccc(C(C(=O)NO)c3ccccc3)cc2)ccc1F (stereo not shown); < 1000 nM
Cc1ccsc1C(=O)Nc1cccc(C(C(=O)NO)c2ccccc2)c1 (stereo not shown); 1000 to 15000 nM

Now for another entry.
Entry CC(=O)Nc1cccc(C(C(=O)NO)c2ccccc2)c1 (stereo not shown) , system one or more of HDAC-4, HDAC-5, HDAC-6, HDAC-7, HDAC-8, HDAC-9, HDAC-10 and HDAC-11: what IC50 was measured?
1000 to 15000 nM

---

Readings of pIC50 for the listed compounds
- target desc: one or more of HDAC-4, HDAC-5, HDAC-6, HDAC-7, HDAC-8, HDAC-9, HDAC-10 and HDAC-11
- test: Inhibition of histone deacetylase enzymatic activity (summary statement over isoforms)
- assay setup: Table 3, selected examples; HDAC isoform not given
pIC50: −log10 of the molar value.

Please review the entries below; each comes with its answer.
CN(CCc1ccccc1)c1ccc(C(C(=O)NO)c2ccccc2)cc1 (centres unmarked) [Compound 6-40]; > 6.00
Cc1cccc(C(C(=O)NO)c2ccc(N3CCOCC3)cc2)c1 (centres unmarked) [Compound 5-125]; > 6.00
O=C(NO)C(c1ccccc1)c1ccc(NS(=O)(=O)c2ccc(Cl)cc2)cc1 (centres unmarked) [Compound 2-92]; > 6.00

Report pIC50 for O=C(NO)C(c1ccccc1)c1cccc(NS(=O)(=O)c2ccccc2)c1 (centres unmarked) [Compound 2-89] please.
4.82 to 6.00

Moving on to O=C(NO)C(c1ccccc1)N1CCC(c2nc(-c3cccnc3)no2)CC1 (centres unmarked) [Compound 2-43]
> 6.00

---

- target desc: one or more of HDAC-4, HDAC-5, HDAC-6, HDAC-7, HDAC-8, HDAC-9, HDAC-10 and HDAC-11
- test: Inhibition of histone deacetylase enzymatic activity (summary statement over isoforms)
- assay setup: Table 3, selected examples; HDAC isoform not given
pIC50: −log10 of the molar value.
Below: a set of entries, each annotated with reported pIC50.

CCC(CC)COc1cccc(C(C(=O)NO)c2ccccc2)c1 (stereo not shown); 4.82 to 6.00
O=C(NO)C(c1ccccc1)c1cccnc1 (stereo not shown); > 6.00

Query (molecule): O=C(NO)C(c1ccc([N+](=O)[O-])cc1)c1ccc([N+](=O)[O-])cc1 ; field requested: pIC50
> 6.00

Another molecule: CCN(CC)c1ccc(C(C(=O)NO)c2ccccc2)cc1 (stereo not shown)
> 6.00

Entry O=C(NO)C(c1ccccc1)c1ccc(OC2CCN(Cc3ccccc3)CC2)cc1 (stereo not shown) please
> 6.00

What about O=C(NO)C(c1ccccc1)N1CCN(c2ccccc2)CC1 (stereo not shown) ?
> 6.00

Then O=C(NO)C(c1ccc(N2CCOCC2)cc1)c1ccccc1F (stereo not shown) ?
> 6.00

Moving on to the next molecule: O=C(NO)C(c1ccccc1)c1ccc(OC2CCCC2)cc1 (stereo not shown)
> 6.00

---

- target desc: one or more of HDAC-4, HDAC-5, HDAC-6, HDAC-7, HDAC-8, HDAC-9, HDAC-10 and HDAC-11
- test: Inhibition of histone deacetylase enzymatic activity (summary statement over isoforms)
- assay setup: Table 3, selected examples; HDAC isoform not given
pIC50: −log10 of the molar value.
Below is a list of entries, each paired with its recorded pIC50 value.

CC(=O)Nc1ccc(C(C(=O)NO)c2ccccc2)cc1 (stereo not shown); > 6.00
O=C(NO)C(Sc1ccc(-c2ccccc2)cc1)c1ccccc1 (stereo not shown); > 6.00
O=C(NO)C(c1ccccc1)c1ccc(CCCN2CCS(=O)(=O)CC2)cc1 (stereo not shown); > 6.00
O=C(NO)C(c1ccccc1)n1cc(Cc2ccccc2)nn1 (stereo not shown); > 6.00
CN(C)CCCOc1cccc(C(C(=O)NO)c2ccccc2)c1 (stereo not shown); > 6.00

Consider the compound shown here: O=C(NO)C(c1ccccc1)N1CCC2(CC1)OCCO2 (stereo not shown) What is its recorded pIC50?
4.82 to 6.00

Same for O=C(NO)C(c1ccccc1)c1ccc(N2CCCC2)cc1 (stereo not shown)
> 6.00

# iterate: O=C(NO)C(Oc1ccc2c(c1)OCO2)c1ccccc1 (stereo not shown)
4.82 to 6.00

// repeat for CC(C)Nc1ccc(C(C(=O)NO)c2ccccc2)cc1 (stereo not shown) and report
> 6.00

What do you have for O=C(NO)C(c1ccc(F)cc1)c1cccc(-c2ccccc2)c1 (stereo not shown) ?
> 6.00

---

- target desc: one or more of HDAC-4, HDAC-5, HDAC-6, HDAC-7, HDAC-8, HDAC-9, HDAC-10 and HDAC-11
- test: Inhibition of histone deacetylase enzymatic activity (summary statement over isoforms)
- assay setup: Table 3, selected examples; HDAC isoform not given
pIC50: −log10 of the molar value.
Measured pIC50 accompanies every entry in the list below.

Examples from the recorded data:
O=C(NO)C(c1ccccc1)N1CCC(O)(c2ccccc2)CC1 (stereo not shown); > 6.00
O=C(NO)C(c1ccccc1)c1cccc(OCc2ccccc2F)c1 (stereo not shown); > 6.00
CC(C)CC(=O)Nc1ccc(C(C(=O)NO)c2ccccc2)cc1 (stereo not shown); > 6.00
O=C(NO)C(c1ccccc1)c1ccc(NCC2CCCCC2)cc1 (stereo not shown); > 6.00
C=CCCOc1ccc(C(C(=O)NO)c2ccccc2)cc1 (stereo not shown); > 6.00

Now let's try a different one.
Using the record for O=C(NO)C(c1ccccc1)c1ccc(NCc2ccccn2)cc1 (stereo not shown) , report its pIC50.
> 6.00

---

- target desc: one or more of HDAC-4, HDAC-5, HDAC-6, HDAC-7, HDAC-8, HDAC-9, HDAC-10 and HDAC-11
- test: Inhibition of histone deacetylase enzymatic activity (summary statement over isoforms)
- assay setup: Table 3, selected examples; HDAC isoform not given
Item-by-item account of IC50

As a guide, the following entries are already answered.
O=C(NO)C(c1ccccc1)c1ccc(N2CCN(C3CCCC3)CC2)cc1 (centres unmarked) [Compound 5-77]; < 1000 nM
O=CN(O)C(c1ccccc1)c1ccccc1 [Compound 1-47, N-benzhydryl-N-hydroxyformamide]; < 1000 nM
O=C(Nc1ccc(C(C(=O)NO)c2ccccc2)cc1)c1ccc(F)cc1 (centres unmarked) [Compound 2-61]; < 1000 nM
O=C(NO)C(c1ccccc1)c1ccc(OCC2CCCCC2)cc1 (centres unmarked) [Compound 3-57]; < 1000 nM
O=C(NO)C(c1ccccc1)c1ccc(NCc2ccc(F)cc2)cc1 (centres unmarked) [Compound 2-51]; < 1000 nM
COCCOc1ccc(C(C(=O)NO)c2ccccc2)cc1 (centres unmarked) [Compound 3-50]; < 1000 nM
O=C(NO)C(c1ccccc1)c1cccc(OCc2ccc(F)cc2)c1 (centres unmarked) [Compound 2-8]; < 1000 nM
O=C(NO)C(Sc1ccccc1)c1ccccc1 (centres unmarked) [Compound 1-12]; < 1000 nM

Field request: IC50 | item: O=C(NO)C(c1ccccc1)N1Cc2ccccc2C1 (centres unmarked) [Compound 1-22]
1000 to 15000 nM

Now consider O=C(NO)C(Oc1ccc(F)cc1Cl)c1ccccc1 (centres unmarked) [Compound 7-33] and answer again.
1000 to 15000 nM

Also, O=C(NO)C(c1ccccc1)c1ccc(Oc2ccccc2)cc1 (centres unmarked) [Compound 5-111] please.
< 1000 nM

---

- target desc: one or more of HDAC-4, HDAC-5, HDAC-6, HDAC-7, HDAC-8, HDAC-9, HDAC-10 and HDAC-11
- test: Inhibition of histone deacetylase enzymatic activity (summary statement over isoforms)
- assay setup: Table 3, selected examples; HDAC isoform not given
pIC50: −log10 of the molar value.
reported endpoint: pIC50

O=C(NO)C(c1ccccc1)c1cccc(NCc2ccc(F)cc2)c1 (stereo not drawn) [Compound 2-50]; > 6.00
O=C(NO)C(c1ccccc1)N1CCC(CCc2ccccc2)CC1 (stereo not drawn) [Compound 1-31]; > 6.00
O=C(NO)C(c1ccccc1)c1nc2ccc(-c3cccs3)cc2[nH]1 (stereo not drawn) [Compound 1-20]; > 6.00
CN(C)c1ccc(-c2ccc(C(C(=O)NO)c3ccccc3)cc2)cn1 (stereo not drawn) [Compound 5-58]; > 6.00
CCOc1ccc(C(C(=O)NO)c2ccccc2)cc1 (stereo not drawn) [Compound 3-44]; > 6.00
O=C(NO)C(c1ccccc1)c1ccc(N2CCN(CC3CC3)CC2)cc1 (stereo not drawn) [Compound 5-105]; > 6.00
Cc1ccc(OC(C(=O)NO)c2ccccc2)cc1 (stereo not drawn) [Compound 2-15]; 4.82 to 6.00
O=C(NO)C(c1ccccc1)c1cccc(NS(=O)(=O)c2ccc(Cl)cc2)c1 (stereo not drawn) [Compound 2-93]; 4.82 to 6.00

Consider the record given below.
Please report the recorded pIC50 for CC(C)=CCOc1ccc(C(C(=O)NO)c2ccccc2)cc1 (stereo not drawn) [Compound 3-52] .
> 6.00
